Below is a list of entries, each paired with its recorded RU value.
Molecular target: T1, LAG3 Protein, Human, Recombinant (His Tag) (Sino Biological Catalog No. 16498-H08H) (human, UniProt P18627 23-450)
T1 construct: Bought protein; also called hLAG3-His; LAG3-His; not shown: His tag
T1 sequence (looked up): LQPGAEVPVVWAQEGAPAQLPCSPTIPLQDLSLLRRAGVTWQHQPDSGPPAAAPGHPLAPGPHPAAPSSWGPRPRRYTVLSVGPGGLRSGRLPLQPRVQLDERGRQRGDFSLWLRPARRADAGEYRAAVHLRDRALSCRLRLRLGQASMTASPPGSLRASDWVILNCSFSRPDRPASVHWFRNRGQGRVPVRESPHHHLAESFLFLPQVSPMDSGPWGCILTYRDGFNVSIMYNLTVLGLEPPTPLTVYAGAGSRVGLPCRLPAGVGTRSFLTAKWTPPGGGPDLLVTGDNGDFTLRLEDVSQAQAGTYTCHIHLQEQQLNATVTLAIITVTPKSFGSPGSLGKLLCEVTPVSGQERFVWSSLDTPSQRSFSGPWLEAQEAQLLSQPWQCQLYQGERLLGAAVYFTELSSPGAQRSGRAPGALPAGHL
Test: SPR binning on LAG3-His; competitor 21

See these solved cases before continuing.
[
  {
    "BINDER": "sdAb No. 24 (VHH, Fc of the tested form not described; also called sdAb 24; not shown: Fc part implied by anti-human Fc capture) VHH: QLQLVESGGGLVQPGGSLRLSCAASGFTLNEHAIGWFRQAPGKEREGVSCISSSDGSTYYHDSVKGRFTMSRDDAKNTVYLQMNSLKAEDTAIYYCAAALGRDCQGGQWKTSSWGQGTQVTVSS",
    "RU": "-12 RU"
  },
  {
    "BINDER": "sdAb No. 17 (VHH, Fc of the tested form not described; also called sdAb 17; not shown: Fc part implied by anti-human Fc capture and anti-human IgG1 Fc detection) VHH: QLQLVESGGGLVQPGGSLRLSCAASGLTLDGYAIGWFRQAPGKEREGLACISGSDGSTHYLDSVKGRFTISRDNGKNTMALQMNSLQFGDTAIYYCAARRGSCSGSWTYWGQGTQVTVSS",
    "RU": "-12.5 RU"
  },
  {
    "BINDER": "sdAb No. 73 (VHH, Fc not described; also called sdAb 73; not shown: Fc part implied by anti-human Fc capture) VHH: QVQLVESGGGLVQPGGSLKLSCTASGFTLDYYAIAWFRQAPGKEREAVSCISSSDGSTRYADSVKGRFTISRDNAKNTVYLQMNSLKPEDTAVYYCAADPYGDCRGPYDYWGQGTQVTVSS",
    "RU": "-10.2 RU"
  },
  {
    "BINDER": "sdAb No. 27 (VHH, Fc of the tested form not described; also called sdAb 27; not shown: Fc part implied by anti-human Fc capture and anti-human IgG Fc detection) VHH: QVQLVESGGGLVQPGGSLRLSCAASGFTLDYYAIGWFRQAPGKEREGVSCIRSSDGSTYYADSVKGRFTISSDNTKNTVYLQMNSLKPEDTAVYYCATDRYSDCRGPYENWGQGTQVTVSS",
    "RU": "-10.1 RU"
  }
]

So what's the measured RU for this one? sdAb No. 21 (VHH, Fc of the tested form not described; also called sdAb 21; not shown: Fc part implied by anti-human Fc capture) VHH: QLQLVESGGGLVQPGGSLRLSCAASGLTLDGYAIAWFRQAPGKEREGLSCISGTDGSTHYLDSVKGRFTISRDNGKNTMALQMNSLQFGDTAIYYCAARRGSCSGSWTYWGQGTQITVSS
-19.1 RU
